TARGET OR SYSTEM: FGFR1 (human)
RUN DESCRIPTION: radiometric filter-binding kinase assay
ASSAY CONDITIONS: compound 0.1 µM
READOUT LABEL: residual activity (%)

{"COMPOUND": "NC(=O)c1cc(-c2ccnc(NC3CCCCC3)c2)nc(N2CCNCC2)c1", "READOUT LABEL": "residual activity", "OBSERVED MEASUREMENT": 110}
{"COMPOUND": "CN(C)C/C=C/C(=O)Nc1cccc(C(=O)Nc2ccc(Nc3nccc(-c4cccnc4)n3)cc2)c1", "READOUT LABEL": "residual activity", "OBSERVED MEASUREMENT": 94}
{"COMPOUND": "CC1=C(CO)C(=O)O[C@@H]([C@@H](C)[C@H]2CC[C@H]3[C@@H]4C[C@H]5O[C@]56[C@@H](O)C=CC(=O)[C@]6(C)C4CC[C@]23C)C1 (stereo not given in full)", "READOUT LABEL": "residual activity", "OBSERVED MEASUREMENT": 98}
{"COMPOUND": "CCCCCc1ccc(/C=C/[C@H](O)[C@@H](CO)NC)cc1", "READOUT LABEL": "residual activity", "OBSERVED MEASUREMENT": 115}
{"COMPOUND": "CCc1cncnc1N1CCN(Cc2nc3cc(C(F)(F)F)ccc3[nH]2)CC1", "READOUT LABEL": "residual activity", "OBSERVED MEASUREMENT": 91}

* * *

TARGET OR SYSTEM: STK11 CAB39 STRADA (human) (UniProt Q9Y376+Q7RTN6+Q15831)
Sequence (Q15831 whole entry, looked up): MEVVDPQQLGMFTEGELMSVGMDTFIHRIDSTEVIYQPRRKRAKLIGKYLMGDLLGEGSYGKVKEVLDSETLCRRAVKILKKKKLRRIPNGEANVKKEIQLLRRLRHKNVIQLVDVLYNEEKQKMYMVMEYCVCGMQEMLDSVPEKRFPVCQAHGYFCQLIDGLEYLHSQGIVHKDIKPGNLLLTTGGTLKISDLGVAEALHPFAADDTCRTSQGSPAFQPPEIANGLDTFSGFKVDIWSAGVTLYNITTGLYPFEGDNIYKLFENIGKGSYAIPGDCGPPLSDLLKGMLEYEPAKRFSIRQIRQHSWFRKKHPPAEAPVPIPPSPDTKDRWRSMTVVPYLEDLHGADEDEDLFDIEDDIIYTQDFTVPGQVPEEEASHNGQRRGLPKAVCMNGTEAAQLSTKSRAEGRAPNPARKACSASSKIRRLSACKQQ
Sequence (Q7RTN6 whole entry, looked up): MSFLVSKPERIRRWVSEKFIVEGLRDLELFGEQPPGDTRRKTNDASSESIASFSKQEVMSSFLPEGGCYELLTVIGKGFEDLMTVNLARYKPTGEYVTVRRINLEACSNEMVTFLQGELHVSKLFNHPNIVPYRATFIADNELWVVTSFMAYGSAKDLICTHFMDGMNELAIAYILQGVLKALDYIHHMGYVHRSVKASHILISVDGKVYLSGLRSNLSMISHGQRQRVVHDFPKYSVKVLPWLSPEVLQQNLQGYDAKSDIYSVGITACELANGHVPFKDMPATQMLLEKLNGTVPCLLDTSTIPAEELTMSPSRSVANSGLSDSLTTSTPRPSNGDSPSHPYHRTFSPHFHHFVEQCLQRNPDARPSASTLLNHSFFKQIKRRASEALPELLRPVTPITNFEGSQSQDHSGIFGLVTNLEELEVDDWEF
Sequence (Q9Y376 whole entry, looked up): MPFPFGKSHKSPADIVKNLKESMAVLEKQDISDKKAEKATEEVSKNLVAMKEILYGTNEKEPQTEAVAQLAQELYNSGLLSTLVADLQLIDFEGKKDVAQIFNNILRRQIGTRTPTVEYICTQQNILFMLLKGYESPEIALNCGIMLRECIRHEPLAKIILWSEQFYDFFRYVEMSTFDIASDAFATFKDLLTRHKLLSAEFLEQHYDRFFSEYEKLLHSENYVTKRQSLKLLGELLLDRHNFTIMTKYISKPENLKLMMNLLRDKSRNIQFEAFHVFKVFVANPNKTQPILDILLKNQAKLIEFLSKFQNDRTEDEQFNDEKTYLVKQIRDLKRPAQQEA
RUN DESCRIPTION: radiometric filter-binding kinase assay
ASSAY CONDITIONS: compound 1.0 µM
READOUT LABEL: residual activity (%)

{"MOLECULE": "CCNc1nc(Nc2cc(F)c(C(=O)N3CCOCC3)cc2OC)ncc1C(F)(F)F", "TARGET OR SYSTEM": "STK11 CAB39 STRADA (human) (UniProt Q9Y376+Q7RTN6+Q15831)", "UNITS SYMBOL": "%", "OBSERVED MEASUREMENT": 89}
{"MOLECULE": "Cc1ccc(=O)n(-c2ccccc2)c1", "TARGET OR SYSTEM": "STK11 CAB39 STRADA (human) (UniProt Q9Y376+Q7RTN6+Q15831)", "UNITS SYMBOL": "%", "OBSERVED MEASUREMENT": 103}
{"MOLECULE": "O=C(NCCCNc1nc(Nc2cccc(CN3CCOCC3)c2)ncc1C1CC1)C1CCC1", "TARGET OR SYSTEM": "STK11 CAB39 STRADA (human) (UniProt Q9Y376+Q7RTN6+Q15831)", "UNITS SYMBOL": "%", "OBSERVED MEASUREMENT": 118}

[A] Cc1cccc(-c2nn(C(=S)Nc3ccccc3)cc2-c2ccnc3ccccc23)n1
[B] Cc1ccc(Sc2cnc(Nc3cccc(Br)n3)s2)cc1C(=O)N1CCN(C(=O)CN)CC1
-- ask Choose between A and B : whose measured residual activity value is numerically larger? Provide the label of your selected option as the answer.
-- reply A
(A: 99%, B: 62%)

* * *

TARGET OR SYSTEM: GSK3B (human) (UniProt P49841)
Sequence (P49841 whole entry, looked up): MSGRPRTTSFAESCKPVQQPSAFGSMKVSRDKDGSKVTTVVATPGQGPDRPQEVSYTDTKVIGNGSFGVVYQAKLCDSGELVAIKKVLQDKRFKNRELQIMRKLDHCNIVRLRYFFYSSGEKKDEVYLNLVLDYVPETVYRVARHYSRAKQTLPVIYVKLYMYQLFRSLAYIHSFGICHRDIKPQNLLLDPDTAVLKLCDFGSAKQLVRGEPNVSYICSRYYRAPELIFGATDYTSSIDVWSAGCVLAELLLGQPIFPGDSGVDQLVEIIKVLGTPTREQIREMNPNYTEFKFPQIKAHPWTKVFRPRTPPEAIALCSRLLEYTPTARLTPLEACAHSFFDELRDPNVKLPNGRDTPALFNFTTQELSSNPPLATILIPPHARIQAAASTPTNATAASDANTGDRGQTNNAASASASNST
RUN DESCRIPTION: radiometric filter-binding kinase assay
ASSAY CONDITIONS: compound 10.0 µM
READOUT LABEL: residual activity (%)

{"COMPOUND": "O=C1Nc2nc(-c3c(O)cccc3OCC3CC3)cc(C3CCCNC3)c2CO1 (stereo not given)", "READOUT LABEL": "residual activity", "UNITS SYMBOL": "%", "OBSERVED MEASUREMENT": 99}

[I] O=C1NC(=S)N[C@@H]1Cc1c[nH]c2ccccc12
[II] NC(=O)c1cc2c(-c3cccc(-c4ccccc4)c3)cnc(N)c2s1
-- ask Lower value of residual activity belongs to which: I or II ? Provide the label of your selected option as the answer.
-- reply II

[1] Nc1cccc2c1CN(C1CCC(=O)NC1=O)C2=O (stereo not given)
[2] NC(=O)Nc1ccc2c(c1)/C(=C/c1cc(-c3cccnc3)c[nH]1)C(=O)N2
-- ask Choose between 1 and 2 : whose measured residual activity value is numerically larger? Provide the label of your selected option as the answer.
-- reply 1

[A] O=C(Nc1ccccc1-c1cn2c(CN3CCNCC3)csc2n1)c1cnc2ccccc2n1
[B] CCOC(=O)c1ccc(N2NC(=O)/C(=C/c3ccc([N+](=O)[O-])o3)C2=O)cc1
-- ask Lower value of residual activity belongs to which: A or B ? Provide the label of your selected option as the answer.
-- reply A
(A: 67%, B: 106%)

* * *

TARGET OR SYSTEM: MST4 (human) (UniProt Q9P289)
Sequence (Q9P289 whole entry, looked up): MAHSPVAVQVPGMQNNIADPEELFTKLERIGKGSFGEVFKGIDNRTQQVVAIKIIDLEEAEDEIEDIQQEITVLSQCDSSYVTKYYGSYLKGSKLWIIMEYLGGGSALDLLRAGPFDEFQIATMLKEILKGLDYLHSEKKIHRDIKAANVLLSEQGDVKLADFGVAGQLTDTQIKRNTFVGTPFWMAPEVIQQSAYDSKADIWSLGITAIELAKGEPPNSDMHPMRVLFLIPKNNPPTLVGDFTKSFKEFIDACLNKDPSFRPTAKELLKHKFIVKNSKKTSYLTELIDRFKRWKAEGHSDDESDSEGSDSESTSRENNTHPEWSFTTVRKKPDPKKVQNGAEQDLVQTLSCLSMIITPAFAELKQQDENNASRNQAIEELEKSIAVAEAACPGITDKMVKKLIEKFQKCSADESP
RUN DESCRIPTION: radiometric filter-binding kinase assay
ASSAY CONDITIONS: compound 1.0 µM
READOUT LABEL: residual activity (%)

Worked set:
{"COMPOUND": "CCNc1nc(Nc2cc(F)c(C(=O)N3CCOCC3)cc2OC)ncc1C(F)(F)F", "UNITS SYMBOL": "%", "residual activity": 86}
{"COMPOUND": "NC(=O)c1ccc(-c2ccc(Oc3cncc4sc(-c5nn[nH]n5)cc34)cc2)cc1", "UNITS SYMBOL": "%", "residual activity": 93}
{"COMPOUND": "O=C(NCCCNc1nc(Nc2cccc(CN3CCOCC3)c2)ncc1C1CC1)C1CCC1", "UNITS SYMBOL": "%", "residual activity": 94}
{"COMPOUND": "O=C(Nc1ccccc1-c1cn2c(CN3CCNCC3)csc2n1)c1cnc2ccccc2n1", "UNITS SYMBOL": "%", "residual activity": 100}

[A] Cc1nc(-c2ccc(OCC(C)C)c(C#N)c2)sc1C(=O)O
[B] CNC(=O)C1[C@H]2O[C@@](C)([C@@H]1N)n1c3ccccc3c3c4c(c5c6ccccc6n2c5c31)C(=O)NC4 (stereo not given in full)
-- ask Choose between A and B : whose measured residual activity value is numerically larger? Provide the label of your selected option as the answer.
-- reply A
(A: 94%, B: 20%)

* * *

TARGET OR SYSTEM: EPHB2 (human) (UniProt P29323)
Sequence (P29323 whole entry, looked up): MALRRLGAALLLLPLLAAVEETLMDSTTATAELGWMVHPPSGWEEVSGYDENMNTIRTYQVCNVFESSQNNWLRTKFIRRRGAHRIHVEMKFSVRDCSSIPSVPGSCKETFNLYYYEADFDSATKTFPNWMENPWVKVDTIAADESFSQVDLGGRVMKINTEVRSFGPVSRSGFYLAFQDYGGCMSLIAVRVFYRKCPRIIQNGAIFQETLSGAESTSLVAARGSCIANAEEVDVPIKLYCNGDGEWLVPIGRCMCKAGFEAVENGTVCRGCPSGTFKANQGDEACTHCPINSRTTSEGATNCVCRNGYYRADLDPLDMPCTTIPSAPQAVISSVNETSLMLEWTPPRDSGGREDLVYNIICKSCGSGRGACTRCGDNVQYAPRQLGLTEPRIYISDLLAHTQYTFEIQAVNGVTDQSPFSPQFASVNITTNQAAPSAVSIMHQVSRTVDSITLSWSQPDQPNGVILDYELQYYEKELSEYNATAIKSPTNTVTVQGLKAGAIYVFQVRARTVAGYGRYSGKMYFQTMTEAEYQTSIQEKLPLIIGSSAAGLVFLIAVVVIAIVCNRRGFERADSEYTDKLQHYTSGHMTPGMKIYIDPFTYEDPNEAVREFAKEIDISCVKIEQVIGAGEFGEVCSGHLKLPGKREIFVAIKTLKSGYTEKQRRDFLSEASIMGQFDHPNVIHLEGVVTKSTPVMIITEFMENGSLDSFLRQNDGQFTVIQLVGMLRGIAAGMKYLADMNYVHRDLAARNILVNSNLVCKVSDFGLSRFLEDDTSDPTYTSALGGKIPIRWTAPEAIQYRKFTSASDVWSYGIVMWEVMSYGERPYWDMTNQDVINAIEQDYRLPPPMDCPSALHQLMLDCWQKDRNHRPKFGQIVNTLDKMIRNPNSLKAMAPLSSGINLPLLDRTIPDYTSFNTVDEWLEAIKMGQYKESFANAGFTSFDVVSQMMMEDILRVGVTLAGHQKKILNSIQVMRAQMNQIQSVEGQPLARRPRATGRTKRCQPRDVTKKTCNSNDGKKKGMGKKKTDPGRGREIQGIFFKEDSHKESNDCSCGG
RUN DESCRIPTION: radiometric filter-binding kinase assay
ASSAY CONDITIONS: compound 10.0 µM
READOUT LABEL: residual activity (%)

Worked set:
{"TEST SMILES": "CCOC(=O)c1ccc(N2NC(=O)/C(=C/c3ccc([N+](=O)[O-])o3)C2=O)cc1", "residual activity (%)": 81}
{"TEST SMILES": "O=S(=O)(c1ccc(F)c2nonc12)N1CCN(c2ncc(C(F)(F)F)cc2Cl)CC1", "residual activity (%)": 102}
{"TEST SMILES": "Cc1ccc(=O)n(-c2ccccc2)c1", "residual activity (%)": 109}

[P] N#Cc1c(C2CCNCC2)cc(-c2c(O)cccc2OCC2CC2)nc1N
[Q] NC1(c2ccc(-c3nc4ccn5c(=O)[nH]nc5c4cc3-c3ccccc3)cc2)CCC1
-- ask Lower value of residual activity belongs to which: P or Q ? Provide the label of your selected option as the answer.
-- reply Q

[A] CCCC(CCC)C(=O)O
[B] NC(=O)c1c(NC(=O)C2CC2)sc2c1CCCC2
[C] NC(=O)c1cc2c(-c3cccc(-c4ccccc4)c3)cnc(N)c2s1
-- ask Returns the items ordered by residual activity, from maximum to minimum. Please reply with the labels ordered as requested. Many thanks.
-- reply A, B, C
(A: 106%, B: 62%, C: 24%)

* * *

TARGET OR SYSTEM: PIM1 (human) (UniProt P11309)
Sequence (P11309 whole entry, looked up): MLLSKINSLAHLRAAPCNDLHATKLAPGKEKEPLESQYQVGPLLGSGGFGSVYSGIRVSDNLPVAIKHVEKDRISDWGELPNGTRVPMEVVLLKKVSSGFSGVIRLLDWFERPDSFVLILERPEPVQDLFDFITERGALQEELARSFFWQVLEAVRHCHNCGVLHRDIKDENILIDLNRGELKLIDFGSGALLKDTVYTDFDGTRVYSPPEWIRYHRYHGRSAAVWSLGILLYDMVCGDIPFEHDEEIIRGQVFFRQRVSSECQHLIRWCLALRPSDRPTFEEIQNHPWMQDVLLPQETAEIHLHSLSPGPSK
RUN DESCRIPTION: radiometric filter-binding kinase assay
ASSAY CONDITIONS: compound 1.0 µM
READOUT LABEL: residual activity (%)

Worked set:
{"COMPOUND": "CCc1cncnc1N1CCN(Cc2nc3cc(C(F)(F)F)ccc3[nH]2)CC1", "residual activity [%]": 90}
{"COMPOUND": "C=CC(=O)N1CCC[C@@H](n2nc(-c3ccc(Oc4ccccc4)cc3)c3c(N)ncnc32)C1", "residual activity [%]": 95}

[I] NC(=O)Nc1ccc2c(c1)/C(=C/c1cc(-c3cccnc3)c[nH]1)C(=O)N2
[II] O=C1Nc2nc(-c3c(O)cccc3OCC3CC3)cc(C3CCCNC3)c2CO1 (stereo not given)
[III] Cn1nc(Nc2ccc(F)cc2)c2c(N)ncnc21
-- ask Please put the entries in order of rising residual activity. Please reply with the labels ordered as requested. Many thanks.
-- reply I, II, III

* * *

TARGET OR SYSTEM: SRC (human) (UniProt P12931)
Sequence (P12931 whole entry, looked up): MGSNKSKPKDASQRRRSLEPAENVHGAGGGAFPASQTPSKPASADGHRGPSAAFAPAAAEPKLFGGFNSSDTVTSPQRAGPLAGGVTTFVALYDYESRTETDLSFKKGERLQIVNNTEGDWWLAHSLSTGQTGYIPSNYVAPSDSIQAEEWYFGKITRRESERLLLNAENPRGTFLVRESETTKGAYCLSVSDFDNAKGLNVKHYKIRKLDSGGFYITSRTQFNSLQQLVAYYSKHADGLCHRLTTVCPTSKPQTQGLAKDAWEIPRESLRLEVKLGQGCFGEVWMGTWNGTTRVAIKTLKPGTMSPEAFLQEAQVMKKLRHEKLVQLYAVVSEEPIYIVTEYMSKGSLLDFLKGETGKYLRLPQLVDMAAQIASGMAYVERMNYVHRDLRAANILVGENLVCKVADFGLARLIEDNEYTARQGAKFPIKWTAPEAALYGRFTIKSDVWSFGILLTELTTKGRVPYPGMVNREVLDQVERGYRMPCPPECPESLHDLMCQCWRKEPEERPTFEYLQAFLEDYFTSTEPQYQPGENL
RUN DESCRIPTION: radiometric filter-binding kinase assay
ASSAY CONDITIONS: compound 10.0 µM
READOUT LABEL: residual activity (%)

Worked set:
{"TEST SMILES": "CN1C(=O)[C@@H](Cc2c[nH]c3ccccc23)NC1=S", "READOUT LABEL": "residual activity", "UNITS SYMBOL": "%", "OBSERVED MEASUREMENT": 110}
{"TEST SMILES": "Cc1cccc(Nc2nn(C)c3ncnc(N)c23)c1", "READOUT LABEL": "residual activity", "UNITS SYMBOL": "%", "OBSERVED MEASUREMENT": 100}

[A] CCCCCc1ccc(/C=C/[C@H](O)[C@@H](CO)NC)cc1
[B] Cc1cc(SCc2sc(-c3ccc(C(F)(F)F)cc3)nc2C)ccc1OCC(=O)O
-- ask Choose between A and B : whose measured residual activity value is numerically larger? Provide the label of your selected option as the answer.
-- reply A
